Parameter IC50: see the listing below.
Target: JAK2 (Homo sapiens)
Construct: endogenous in cells
Sequence (O60674 whole entry): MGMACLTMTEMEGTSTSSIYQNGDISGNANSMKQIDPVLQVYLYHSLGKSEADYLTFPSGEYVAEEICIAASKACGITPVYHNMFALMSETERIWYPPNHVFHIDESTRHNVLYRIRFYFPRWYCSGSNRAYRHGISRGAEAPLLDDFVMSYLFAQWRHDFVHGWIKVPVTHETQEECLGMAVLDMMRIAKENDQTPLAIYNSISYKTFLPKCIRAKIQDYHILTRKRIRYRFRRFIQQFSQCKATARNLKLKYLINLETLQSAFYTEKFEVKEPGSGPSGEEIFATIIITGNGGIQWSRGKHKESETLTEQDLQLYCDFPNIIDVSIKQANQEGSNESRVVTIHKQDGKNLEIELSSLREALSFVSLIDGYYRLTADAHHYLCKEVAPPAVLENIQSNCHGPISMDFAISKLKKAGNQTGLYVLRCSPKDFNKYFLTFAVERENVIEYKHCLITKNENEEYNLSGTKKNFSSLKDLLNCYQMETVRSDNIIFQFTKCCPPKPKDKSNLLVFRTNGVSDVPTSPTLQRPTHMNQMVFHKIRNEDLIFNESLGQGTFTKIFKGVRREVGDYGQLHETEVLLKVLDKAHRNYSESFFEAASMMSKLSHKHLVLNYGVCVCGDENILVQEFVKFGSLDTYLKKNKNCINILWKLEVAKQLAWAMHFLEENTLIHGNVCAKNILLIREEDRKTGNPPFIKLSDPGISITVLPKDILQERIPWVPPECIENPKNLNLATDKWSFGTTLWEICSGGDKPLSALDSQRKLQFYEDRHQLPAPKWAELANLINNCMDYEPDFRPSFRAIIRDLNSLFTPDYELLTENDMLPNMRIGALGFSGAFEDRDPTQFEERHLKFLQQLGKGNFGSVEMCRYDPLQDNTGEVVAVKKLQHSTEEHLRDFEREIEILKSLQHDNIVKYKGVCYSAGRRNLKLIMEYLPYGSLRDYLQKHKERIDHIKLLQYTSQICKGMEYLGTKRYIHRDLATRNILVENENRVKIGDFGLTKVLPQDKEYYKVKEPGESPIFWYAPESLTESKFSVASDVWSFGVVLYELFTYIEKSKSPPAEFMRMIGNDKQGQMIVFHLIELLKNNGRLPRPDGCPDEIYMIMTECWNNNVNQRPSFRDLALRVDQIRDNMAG
Assay: Kinobeads assay, JAK2
Settings: mixed Molt4/Ramos lysate, read-out: Inhibition values (IC50) JAK2

CNC(=O)Cn1cc(Nc2ncc(Cl)c(N[C@H](CO)c3ccccc3)n2)cn1 [Compound 23] ... 1 to 10 µM
CN(C)C(=O)C(Nc1nc(Nc2cnn(CCO)c2)ncc1Cl)c1ccccc1F (stereo not drawn) [Compound 127] ... 1 to 10 µM
COc1ccccc1[C@@H](CO)Nc1nc(Nc2cnn(CCO)c2)ncc1Cl [Compound 76] ... 1 to 10 µM
NC(=O)Cn1cc(Nc2ncc(Cl)c(N[C@H](CO)c3cc(F)ccc3F)n2)cn1 [Compound 140] ... 0.1 to 1 µM
Cn1cc(Nc2ncc(Cl)c(NC(CO)c3cccc(-c4cnn(C)c4)c3)n2)cn1 (stereo not drawn) [Compound 69] ... ≥ 10 µM

Enquiry: Query: IC50; subject: O=C(O)C(Nc1nc(Nc2cnn(CCO)c2)ncc1Cl)c1ccccc1 (stereo not drawn) [Compound 17]
Return: ≥ 10 µM

Enquiry: Suppose we examine the compound Cn1cc(Nc2ncc(Cl)c(NC(CO)c3ccccc3)n2)cn1 (stereo not drawn) [Compound 1] ; what IC50 value has been reported?
Return: ≥ 10 µM

Enquiry: Bench note: what IC50 did Cn1cc(Nc2ncc(Cl)c(NC(CO)c3ccc(F)cc3)n2)cn1 (stereo not drawn) [Compound 71] show?
Return: ≥ 10 µM

Enquiry: # IC50 lookup, item CCC(Nc1nc(Nc2cnn(CC(N)=O)c2)ncc1Cl)c1ccccc1F (stereo not drawn) [Compound 126]
Return: 1 to 10 µM
